B1: LINE1-full (parent)
chain: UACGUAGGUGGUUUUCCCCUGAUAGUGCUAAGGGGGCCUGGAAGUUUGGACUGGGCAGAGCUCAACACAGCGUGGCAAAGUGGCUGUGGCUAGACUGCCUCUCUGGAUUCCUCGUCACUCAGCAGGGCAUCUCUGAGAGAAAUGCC

Variants of: B1
assay-comment: self-cleavage, relative activity (ratio to wild type); higher = more cleavage; in vitro, sequencing; the parent is a self-cleaving ribozyme

# mutant-name, self-cleavage
measured = [
    ("C19U U23C", 0.79),
    ("G4A U130A", 0.55),
    ("G33U U39C", 1.16),
    ("G32U U132A", 1.2),
    ("G33U U104A", 0.93),
    ("A31U U112C", 1.27),
    ("U104C U112A", 1.8),
    ("A79G U91C", 0.45),
    ("G4C A22G", 0.99),
    ("U109C C113A", 0.99),
    ("G25U A79G", 0.77),
    ("G48A U102C", 1.94),
    ("U15C A129G", 1.54),
    ("U13C G89A", 0.04),
    ("U20C U132A", 1.63),
    ("C51U A69U", 0.04),
    ("G8A A78G", 2.03),
    ("A94G C99U", 0.19),
    ("G54C A117U", 1.23),
    ("A30G G55U", 0.79),
    ("A77U G126A", 1.46),
    ("U23C U62A", 0.06),
]
